# test_protocol: folding stability dG unfold from trypsin proteolysis; higher = more stable
value_type: folding stability dG unfold (kcal/mol)

[
  {
    "ordered_residues": "SAGGSGMIPVTVDFPPDVSEEEIKAYVEELEKKGYKVLKVEITTEKDAKGNTLRTVTVVLAPPSLLSAGGSA [r2_442_JUSTAS]",
    "unit_string": "kcal/mol",
    "experimental_value": 3.14
  },
  {
    "ordered_residues": "SAGGMVIRVRFRETNETVTLSPEVLEALKRGDPDALRALPEEQREALARIERVEIRPAPPVRVLPEEESAGG [r13_233_TrROS_Hall]",
    "unit_string": "kcal/mol",
    "experimental_value": 2.63
  },
  {
    "ordered_residues": "SMKVVKLYTDPEGRVVIEITLPKPDGTPVSEEEAKAIADEIAAELKPKYPNATFEITYDPKTGVVTITIGSA [r9_485_JUSTAS]",
    "unit_string": "kcal/mol",
    "experimental_value": 3.49
  },
  {
    "ordered_residues": "SAGGSAGGSAGGGVKYRVLLPKDVNPEKAAELLKPYGVKVVSIEEVEEGFYLIEVEKPESAGGSAGGSAGGS [r10_591_TrMRF]",
    "unit_string": "kcal/mol",
    "experimental_value": 1.18
  },
  {
    "ordered_residues": "SAGPKTLLLNIPPGEDVELLIGDKPYRIKVDPERLIGYAFDPETGEIFLIFHDPEKPIALITVFPSPPLSAG [r5_302_TrMRF]",
    "unit_string": "kcal/mol",
    "experimental_value": 1.56
  },
  {
    "ordered_residues": "SAGGSAGGSAYELVIVGTPELALKLAKEFAEKNPESVANLKIEKITAALPVPFLSPDGIPESAGGSAGGSAG [r3_89_TrMRF]",
    "unit_string": "kcal/mol",
    "experimental_value": 0.0947
  },
  {
    "ordered_residues": "SAGGSAMAIFTVTPPDGVPVTERYSFTTPEEVEAAFAAAKAALPPGTALSVTLVPEEEVAAGRPLLSAGGSA [r15_469_JUSTAS]",
    "unit_string": "kcal/mol",
    "experimental_value": 0.386
  }
]

====

# test_protocol: folding stability dG unfold from trypsin proteolysis; higher = more stable
Kind request: treat 0.7 kcal/mol as inclusive, so folding stability dG unfold at 0.7 kcal/mol or higher is Met, anything lower is Not met.

[
  {
    "ordered_residues": "SAPNIEIDYNKDNGMITIRLPGTGVEYMIPMPDGQLMAIDIEVKPDPDGKRKISIEIYFPDGKEHEFEISAG [r14_675_TrROS]",
    "class_name": "Met"
  },
  {
    "ordered_residues": "SAGGSAGGEIEILPGAKIVRVERRKDGSLLIVVEVDGKLYLFRFKDGKVEVIELPEGASLEELLSAGGSAGG [r6_680_TrROS_Hall]",
    "class_name": "Met"
  },
  {
    "ordered_residues": "SAGGSAGGSAWIVIPAEDIKENLDEIEFRNGDGQEYRIKVDVQEHGDRPYVMIDIVPPGQPISAGGSAGGSA [r18_447_TrROS]",
    "class_name": "Not met"
  },
  {
    "ordered_residues": "SAGGMPPGQVVRLRLERVSPTWVRLYFPETGEVLYFPVRPDATLAEAEAIARELAERLGYPVEIETVSAGGS [r16_446_TrMRF]",
    "class_name": "Met"
  },
  {
    "ordered_residues": "SAGGSAGGSAGGMIRIENPGNGEPRPIKPNDLEDILDNFPGPMRIETGGGEKEVPAKDISAGGSAGGSAGGS [r10_839_TrROS]",
    "class_name": "Not met"
  },
  {
    "ordered_residues": "SAGGSAIIIPIKSAEEILDQLENNPPGRPIHVWAPDGYWIKIEIDPGKGPKIKITEIYPMPPEEAKSAGGSA [r15_577_TrROS]",
    "class_name": "Met"
  },
  {
    "ordered_residues": "SAGGSAGGSAGLKLLEKELRVLTYDPETGSLSESTLRVPVLLVPPVPVPVLDPNGGLTLASAGGSAGGSAGG [r11_307_TrMRF]",
    "class_name": "Not met"
  }
]
